# credit: patent US20250019437A1

Measured Binding Signal (fold over 6E7 parental antibody) of individual entries
Target: T1, human TREM2 (triggering receptor expressed on myeloid cells 2) (human) (UniProt Q9NZC2)
T1 sequence (looked up): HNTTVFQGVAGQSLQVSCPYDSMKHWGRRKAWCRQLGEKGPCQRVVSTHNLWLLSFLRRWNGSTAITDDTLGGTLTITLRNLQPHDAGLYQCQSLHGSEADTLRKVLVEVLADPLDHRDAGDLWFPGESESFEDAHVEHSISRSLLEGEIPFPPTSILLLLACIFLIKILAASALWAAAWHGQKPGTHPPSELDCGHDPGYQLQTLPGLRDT
Assay: 1st screen, 110 nM Ab
The figure you give is taken to be in fold; do not add the unit.

6E7 antibody affinity modulation variant V11 (antibody, V domains shown) VH: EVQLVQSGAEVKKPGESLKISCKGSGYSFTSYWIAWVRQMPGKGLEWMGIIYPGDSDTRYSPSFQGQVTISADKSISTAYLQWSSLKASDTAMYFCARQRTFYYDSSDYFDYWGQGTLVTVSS VL: DIQMTQSPSSVSASVGDRVTITCRASQGISSWLAWYQQKPGKAPKLLIYAASSLQNGVPSRFSGSGSGTDFTLTISSLQPEDFATYFCQQAASFPRTFGQGTKLEIK
0.79
6E7 antibody affinity modulation variant V83 (antibody, V domains shown) VH: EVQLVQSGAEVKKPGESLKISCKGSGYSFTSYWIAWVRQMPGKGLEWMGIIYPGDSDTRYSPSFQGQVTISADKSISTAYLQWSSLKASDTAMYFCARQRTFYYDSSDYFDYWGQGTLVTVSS VL: DIQMTQSPSSVSASVGDRVTITCRASQGISSWLAWYQQKPGKAPKLLIYAASSLQNGVPSRFSGSGSGTDFTLTISSLQPEDFATYFCQQAVSFPRTFGQGTKLEIK
0.2

--- query ---
Query string: What does the record list as Binding Signal (fold over 6E7 parental antibody) for 6E7 antibody affinity modulation variant V44 (antibody, V domains shown) VH: EVQLVQSGAEVKKPGESLKISCKGSGYSFTSYWIAWVRQMPGKGLEWMGIIYPSDSDTRYSPSFQGQVTISADKSISTAYLQWSSLKASDTAMYFCARQRTFYYDSSDYFDYWGQGTLVTVSS VL: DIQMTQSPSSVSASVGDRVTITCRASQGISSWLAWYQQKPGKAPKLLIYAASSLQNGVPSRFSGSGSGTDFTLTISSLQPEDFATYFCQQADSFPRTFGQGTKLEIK ?
Result string: 0.65
